In this section, each of the binders is paired with its reported koff.
target: Human CD33 S128N (human, UniProt P20138 18-259); assay: SPR captured Fab
Sequence (P20138 18-259 S128N): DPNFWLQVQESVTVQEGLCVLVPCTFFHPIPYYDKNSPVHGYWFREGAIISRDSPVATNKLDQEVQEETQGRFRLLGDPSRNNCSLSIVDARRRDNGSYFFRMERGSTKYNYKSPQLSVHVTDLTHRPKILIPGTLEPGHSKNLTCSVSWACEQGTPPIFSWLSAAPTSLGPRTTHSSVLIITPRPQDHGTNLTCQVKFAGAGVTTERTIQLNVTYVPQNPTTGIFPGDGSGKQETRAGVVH
Quick note: give the figure in s⁻¹, leave out the unit.

ADI-10164 Fab (Fab, V domains shown, Fab fragment; also called Ab18) VH: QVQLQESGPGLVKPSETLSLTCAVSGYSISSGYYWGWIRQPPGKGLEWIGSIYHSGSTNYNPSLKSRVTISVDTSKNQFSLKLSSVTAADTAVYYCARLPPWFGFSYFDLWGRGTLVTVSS VL: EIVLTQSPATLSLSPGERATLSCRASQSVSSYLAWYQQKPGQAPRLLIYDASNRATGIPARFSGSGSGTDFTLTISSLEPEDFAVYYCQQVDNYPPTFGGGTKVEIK    0.0539
ADI-11828 Fab (Fab, V domains shown, Fab fragment; also called Ab27) VH: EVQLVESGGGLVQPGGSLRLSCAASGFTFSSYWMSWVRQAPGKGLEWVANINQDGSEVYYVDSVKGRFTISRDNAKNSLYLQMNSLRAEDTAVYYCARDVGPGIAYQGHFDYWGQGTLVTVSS VL: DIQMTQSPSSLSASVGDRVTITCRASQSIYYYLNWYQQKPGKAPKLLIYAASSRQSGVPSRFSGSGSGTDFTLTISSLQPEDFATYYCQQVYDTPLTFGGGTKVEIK    0.00742

# input for lookup
Tell me the measured koff of ADI-10161 Fab (Fab, V domains shown, Fab fragment; also called Ab16) VH: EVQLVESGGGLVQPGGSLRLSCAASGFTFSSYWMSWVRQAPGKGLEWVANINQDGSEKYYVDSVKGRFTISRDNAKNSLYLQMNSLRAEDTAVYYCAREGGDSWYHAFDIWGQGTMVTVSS VL: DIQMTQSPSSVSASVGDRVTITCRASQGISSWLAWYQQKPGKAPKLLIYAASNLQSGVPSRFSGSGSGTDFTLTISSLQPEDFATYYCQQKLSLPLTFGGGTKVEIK , please.
0.0385
